Recorded t1/2 (half-life of the complex, SPR) values for a group of binders are listed next.
target: Fc-fusion protein of human carbonic anhydrase IX (human, UniProt Q16790 38-414); assay: SPR, captured hCAIX-Fc; t1/2 category A: >15.0 min
Starred links: 1 amine or outer side, 2 acyl side, 3 side chain; linkers in the order of their positions; H or OH if unused. Positions of bridges follow the written chain, without caps; N, C: chain ends. Non-standard residues stand in square brackets, D forms with d. Primed or numbered codes have the meaning given here. *: point of attachment. Aph(SaPr)″ = 4-amino-L-phenylalanine, ring amine acylated with 3-sulfamoylpropanoic acid, NS(=O)(=O)CCC(=O)Nc1ccc(C[C@H](N[*:1])C(=O)[*:2])cc1; Phe(3-NHCO(CH2)3SO2NH2) = N[C@@H](Cc1cccc(NC(=O)CCCS(N)(=O)=O)c1)C(=O)O; DOTA = O=C(O)CN1CCN(CC(=O)O)CCN(CC(=O)*)CCN(CC(=O)O)CC1; mXylylene = c1cc(C[*:1])cc(C[*:2])c1; PPAc″ = not defined here

| BINDER | t1/2 (half-life of the complex, SPR) |
| --- | --- |
| {DOTA}-QCE[dP]D[Aph(SaPr)″]LTWSC-NH2 (linker 2-11 via mXylylene; also: Ga complexed in DOTA) [3BP-4602] | > 15 min |

Now for a further binder.
Requested field: t1/2 (half-life of the complex, SPR). Item: {DOTA-PPAc″}-YCE[dP]D[Phe(3-NHCO(CH2)3SO2NH2)]LTWSC-NH2 (linker 2-11 via mXylylene; reading uncertain) [3BP-4448]
> 15 min
